Target: T1, mouse MAdCAM expressed on cells (mouse, UniProt Q61826 22-405)
T1 construct: whole, on cells
T1 sequence (looked up): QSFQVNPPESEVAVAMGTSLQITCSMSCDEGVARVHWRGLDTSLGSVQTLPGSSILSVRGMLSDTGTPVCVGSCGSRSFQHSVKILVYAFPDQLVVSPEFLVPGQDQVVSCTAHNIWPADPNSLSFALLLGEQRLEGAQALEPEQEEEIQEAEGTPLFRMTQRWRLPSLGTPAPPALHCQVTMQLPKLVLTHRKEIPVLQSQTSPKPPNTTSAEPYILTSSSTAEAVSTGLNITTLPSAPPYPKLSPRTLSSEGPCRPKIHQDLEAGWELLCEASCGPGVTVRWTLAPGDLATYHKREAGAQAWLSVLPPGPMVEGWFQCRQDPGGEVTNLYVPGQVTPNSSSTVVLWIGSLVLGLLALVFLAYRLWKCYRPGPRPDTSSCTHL
Assay: cell binding
measurement_name: binding result

**Query** I am curious: what binding result value has been reported for MAdCAM antibody Table 1 clone 52 (scFv) scFv: EVQLLESGGGLVQPGGSLRLSCAASGFTFSNSDMNWVRQAPGKGLEWVAHIWNDGSQKYYADSVKGRFTISRDNSKNTLYLQMNSLRAEDTAVYYCARDRTDPGYSSAMDVWGQGTTVTVSSGGGGSGGGGSGGGGSGGGGSDIQMTQSPSSLSASVGDRVTITCRASQDIRNYLGWYQQKPGKAPKLLIYDASSLETGVPSRFSGSGSGTDFTLTISSLQPEDFATYYCQQATSLPLTFGGGTKVEIK ?
**Result** no binding

**Query** What do we get for MAdCAM antibody Table 1 clone 59 (scFv) scFv: EVQLLESGGGLVQPGGSLRLSCAASGFTFSDFWMHWVRQAPGKGLEWISYISGDSGYTNYADSVKGRFTISRDNSKNTLYLQMNSLRAEDTAVYYCARDRPYYYYMDVWGKGTTVTVSSGGGGSGGGGSGGGGSGGGGSDIQMTQSPSSLSASVGDRVTITCRASQSVSRSLAWYQQKPGKAPKLLIYAASSLQSGVPSRFSGSGSGTDFTLTISSLQPEDFATYYCQQYKSYPVTFGQGTKVEIK ?
**Result** binds

**Query** Can you handle MAdCAM antibody Table 1 clone 17 (scFv) scFv: EVQLLESGGGLVQPGGSLRLSCAASGFTFSDSAMHWVRQAPGKGLEWVSAISGSGSTIYYADSVKGRFTISRDNSKNTLYLQMNSLRAEDTAVYYCVSDIAVAGHWYFDLWGRGTLVTVSSGGGGSGGGGSGGGGSGGGGSDIQMTQSPSSLSASVGDRVTITCRASQSISTFLNWYQQKPGKAPKLLIYAASRLEGGVPSRFSGSGSGTDFTLTISSLQPEDFATYYCQQANSFPLTFGPGTKVDIK next?
**Result** no binding

**Query** Same question for MAdCAM antibody Table 1 clone 14 (scFv) scFv: QVQLVQSGAEVKKPGSSVKVSCKASGYTFTDYHIHWVRQAPGQGLEWMGGIVPRSGSTTYAQKFQGRVTITADESTSTAYMELSSLRSEDTAVYYCAKDESSGWYYFDYWGQGTLVTVSSGGGGSGGGGSGGGGSGGGGSDIVMTQSPLSLPVTPGEPASISCRSSQSLLHSNGYNYLDWYLQKPGQSPQLLIYSAYNRASGVPDRFSGSGSGTDFTLKISRVEAEDVGVYYCMQALQTPLTFGQGTKVEIK please.
**Result** no binding

New cases:
**Query** Reported binding result, binder MAdCAM antibody Table 1 clone 38 (scFv) scFv: EVQLLESGGGLVQPGGSLRLSCAASGFTFGSYSMSWVRQAPGKGLEWVSAIGTGGGTYYADSVKGRFTISRDNSKNTLYLQMNSLRAEDTAVYYCAKGTPYYYYYGMDVWGQGTMVTVSSGGGGSGGGGSGGGGSGGGGSDIQMTQSPSSLSASVGDRVTITCRASQPLSNWLAWYQQKPGKAPKLLIYAASSLQSGVPSRFSGSGSGTDFTLTISSLQPEDFATYYCQQAISFPLTFGGGTKVEIK : ____
**Result** no binding
